- Test system: IGF-1R
- procedure-details: IGF-1R phosphorylation on change of intracellular Ca2+ (Western blot)
- Type: cell-based, human
- particulars: HBE/p53i cells

compound	tested-system	IGF-1R phosphorylation
C[C@H](CCC(=O)O)C[C@H](C)C[C@H](C)C(=O)/C=C(\O)[C@H](C)C[C@H](C)C/C=C/[C@@H](C)[C@@H](O)[C@@H](C)[C@@H](O)C[C@@H]1CC[C@@](C)([C@H]2CC[C@@](C)([C@@H](C)O)O2)O1 [ionomycin]	IGF-1R	increased
O=C(O)CN(CCOCCOCCN(CC(=O)O)CC(=O)O)CC(=O)O [EGTA, ethylene glycol tetraacetic acid]	IGF-1R	inhibited
C/C=C(/C)C(=O)O[C@H]1C(C)=C2[C@H]([C@@H]1OC(=O)CCCCCCC)[C@@](C)(OC(C)=O)C[C@H](OC(=O)CCC)[C@@]1(O)[C@H]2OC(=O)[C@@]1(C)O [thapsigargin]	IGF-1R	increased
CC(=O)OCOC(=O)CN(CC(=O)OCOC(C)=O)c1ccccc1OCCOc1ccccc1N(CC(=O)OCOC(C)=O)CC(=O)OCOC(C)=O [BAPTA-AM]	IGF-1R	inhibited
